assay: yeast display, Sf9 membrane polyspecificity reagent, FACS + sequencing; frameworks hold sequencing errors
experimentalEndpoint: polyreactivity (PSR sort gate)

[[record]]
querysequence = "QVQLVESGGGLVQAGGSLRLSCAASGRTIDSYAMGWSRQAPGKEREFVAAISYSGTSTYYADSVKGRFTISRDNAKNTVYLQMNSLKPEDTAVYYCSKEYNFRLWGQGTQVTVSS"
experimentalendpoint = "polyreactivity (PSR sort gate)"
observedmeasurement = "low polyreactivity"

[[record]]
querysequence = "QVQLVESGGGLVQAGGSLRLSCAASGFIFRSYAMGWYRQAPGKERELVAAITKSGGRTYYADSVKGRFTISRDNAKNTVYLQMNSLKPEDSAVYYCAADQTSYSTSRRYDYWGQGTQVTVSS"
experimentalendpoint = "polyreactivity (PSR sort gate)"
observedmeasurement = "high polyreactivity"

[[record]]
querysequence = "QVQLVESGGGLVQAGGSLRLSSAASGRTFGFNPMGWYRQAPGKERELVAAISSSSSSTYYADSVKGRFTISRDNAKNTVYLQINSLKPEDTAVYYCAKQEPYPFGGYYEYDYWGQGTQVTVSS"
experimentalendpoint = "polyreactivity (PSR sort gate)"
observedmeasurement = "low polyreactivity"

[[record]]
querysequence = "QVQLVESGGGLVQAGGSLRLSCAASGRIFQKYAMGWYRQAPGKERELVAVITGRGGSTYYADSVKGRFTISRDNAKNTVFLLMNSLKKEDTAVYYCASVPGYWGQGTQVTVSS"
experimentalendpoint = "polyreactivity (PSR sort gate)"
observedmeasurement = "high polyreactivity"

[[record]]
querysequence = "QVQLVETGGGLVQAGGSLRLSCAASGNTFAGNAMGWYRQAPGKERELVAAISRSGVTTRYADSVKGRFTISRDNATNTVYLQMNSLKPEDTAVYYCNADPRLRQNRDYWGQGTQVTVSS"
experimentalendpoint = "polyreactivity (PSR sort gate)"
observedmeasurement = "high polyreactivity"


----------
assay: yeast display, Sf9 membrane polyspecificity reagent, FACS + sequencing; frameworks hold sequencing errors
experimentalEndpoint: polyreactivity (PSR sort gate)

[[record]]
querysequence = "QVQLVESGGGLVQAGGSLRLSCAASGYTFSQNAMGWYRQAPGKEREVVAGITTRGTTTYYADSVKGRFTISRDNAKNTVYLQMNSLKPEDTPVYYCAADNSYTDNYWGQGTQVTVSS"
observedmeasurement = "low polyreactivity"

[[record]]
querysequence = "QVQLVESGGGLVQAGGSLRLSCAASASIFDDNAMGWYRQAPGKERELVAGISRGGSTNYADSVKGRFTISRDNAKNTVYLQMNSLKPEDTAVYYCNKRYKPSWTTYDYWGQGTQVTVSS"
observedmeasurement = "low polyreactivity"

[[record]]
querysequence = "QVQLVEPGGGLVQAGGSLRLSCAASGSIFAYYVMGWYRQAPGKERELVAGISFSGGTTYYADSVNGRFTISRDNAKNTVYLQMNSLKPEDTAVYYCNADPDHREFDYWGQGTQVTVSS"
observedmeasurement = "low polyreactivity"

[[record]]
querysequence = "QDQLVETGGGLVQAGVSLRISCAASGSTFYYNAMGWYRQAPGKERELVAAITWSGDSTYYADSVKGRFTISRDNAKNTVYLQMNSLKPEDTAVYYCNAEYYDYFDYVSDYWGQGTQVTVSS"
observedmeasurement = "low polyreactivity"

[[record]]
querysequence = "QVQLVESGGGLVQAGGSLRLSCAASGPTFPFNAMGWYRQAPGKERELVAAISWRDGRTYYADSVKGRFTISRDNAKNTVYLQMNSLKPEDTAVYYCNVVKRRSDWGMDYWGQGTQVTVSS"
observedmeasurement = "high polyreactivity"

[[record]]
querysequence = "QVQLVESGGGLVHAGGSLRLSCDASGIIFFIYTMGWYRQAPGKERELVAVITRGGRTNYADSVKGRFTISRDNAKNTVYLQMNSLKPEDTAVYYCAAKGSRSYYWGQGTQVNVSS"
observedmeasurement = "high polyreactivity"

[[record]]
querysequence = "QVQLVESGGGLVQAGGSLRLSCAASGITFKRYAMGWYRQAPGKERELVAAINGSGGRTYYADSVKGRFTISRDNAKNTVYLQMNSLKPEDTAVYYCNARHIYPSHYDYWGQGTQVTVSS"
observedmeasurement = "high polyreactivity"

[[record]]
querysequence = "QVQLVESGGGLVQAGGSLRLSCGASGRIFNSNAMGWYRQAPGKERELVAASSWSGGTSYYADSVKGRFTISRDNAKNTVYLQLNSLKPEDTAVYYCNAVGLHWWPGDYWGQGTQVTVSS"
observedmeasurement = "low polyreactivity"

[[record]]
querysequence = "QVQLVESGGGLVQAGGSLRLSCAASGSFLVYYAMGWYRQAPGKERELVAAISWRGDSTSYADSVKGRFTISRDNAKNTVYLQMNSLKPEETAVYYCATAHDYAFYRYWYVPSEYNYWGQGTQVTVSS"
observedmeasurement = "low polyreactivity"

[[record]]
querysequence = "QVQLVESGGGLVQAGGSLRLSCAASGRIFLKYTMGLYRQAPGKERELVAAISRGGSTYYADSVKGRFTISRDNAKNTVYLQMNRLKPEDTAVYYCAATSYRRTGYNYWGQGTQVTVSS"
observedmeasurement = "high polyreactivity"

[[record]]
querysequence = "QVQLVESGGGLVQAGGSLRLSCAASGSIFQPNAMGGGGQAPGKERELVASIRGRGGDTYYADSVKGRFTISRDNAKNTVYLQMNSLKPEDTAVYYCAADYRWGQGTQVTVSS"
observedmeasurement = "low polyreactivity"

[[record]]
querysequence = "QVQLVESGGGLVQAGGSLRLSCAASGSIFQGNAMGWYRQAPGKERELVAAISQSGGRTYYADSVKGRFTITRDNAKNTVYLQMNSLKPEDTAVYYCNTTKVYRLRFDYWGQGTQVTVSS"
observedmeasurement = "low polyreactivity"

[[record]]
querysequence = "QVQLVESGGRLVQAGGSLRLSCAASGFTFPNYAMGWYRQAPGKERELVAAISWSGTSTYYADSVKGRFTISRDNAKNTVYLQMNSLKPEDTAVYDCAAKYQRGGYYESYWLRTGYYWGQGTQVTVSS"
observedmeasurement = "high polyreactivity"

[[record]]
querysequence = "QVQLVESGGGLVQAGGRLRLSCAASGSIFEGYVMGWYRQAPGKERELVAAITTGGGSTYYADSVKGRFTISRDNAKNTVYLQMNSLKPEDTAVYYCAKDGGRWGQGTQVTVSS"
observedmeasurement = "low polyreactivity"

[[record]]
querysequence = "QEQLQESGGGQVQAGGSLLLSCAASGNIIRYYYMGWYRQAPGKERELVAAITYGTSTNYADSVKGRFTIRRDNAKNTVYLQMNSLKPEDTAVYYCAVDVNYGDPLDNWGQGTQVTVSS"
observedmeasurement = "high polyreactivity"

[[record]]
querysequence = "QVQLVESGGGLVQAGGSLRLSCAASGFTFYYYALGWYRQAPGKERELVAAISTRDGNTYYADSVKGRFTISRDNAKNTVYLQMNSLKPEDTAVYYCAADSYSGYNYWGQGTQVTVSS"
observedmeasurement = "low polyreactivity"

[[record]]
querysequence = "QVQLVESGGGLVQAGGSLRLTCAASGRIYTYNAMGRYRKAPGKERELVATITWRGGGTYYADSVKGRFTISRDNAKNTVYLQMNSLKPEDTAVYYCIRRLPGDGQYGYRRFDYWGQGTQVTVSS"
observedmeasurement = "low polyreactivity"

[[record]]
querysequence = "QVQLVESGGGLVQAGGSLRLSCAASGFTFSFYAMGWYRQAPGKERELVATIRSGGRTYYADSVKGRFTISRDNAKNTVYLQRNSLKPEDTAVYYCAADDHYGRGFQYYYWGQGTQVTVSS"
observedmeasurement = "high polyreactivity"

[[record]]
querysequence = "QVQLVESGGGLVQAGGSLRLSCAASGSMFVVYAMGWYRQGPGKERELVAAISWGIGSTYYADSVKGRFTISRDNAKNTVYLQMNSLKPEDTADYYCAADTDIVLYDYWGQGTQVTVSS"
observedmeasurement = "low polyreactivity"

[[record]]
querysequence = "QVQLVESGGGLVQAGGSLRLSCAASGRIFEPYAMGWYRQAPGKERELVAAISWSGTSTRYADSVKGRFTISRDNAKNTVYLQMNSLKPEDTAVYYCAARGNNPARGGYWGQGTQVTVSS"
observedmeasurement = "high polyreactivity"

[[record]]
querysequence = "QVQLVESGGGLVQEGGSLRLSCAASGITFAFYTMGRYRQAPGKERELVAAISYSGGRTYYADSVKGRFTISRDNAMNTVYLQMNSLKAEDTAVYYCAVETWWDYDYWGQGTQVTVSS"
observedmeasurement = "high polyreactivity"

